- target under test: T1, SARS-CoV-2 S1 (40591-V08H3, Sino Biological) (SARS-CoV-2, UniProt P0DTC2 16-685)
- T1 construct: domain: S1
- test name: ELISA on coated protein, anti-human IgG-HRP; AUC of the OD

binder: 1246C2 (antibody, V domains shown) VH: QVQLVQSGGGLVKPGGSLRLSCAASGFTFKTHNMIWVRQAPGKVLEWVSSISGSSSYRYYGDSMKGRLTISRDNAKNSLYLEMNSLRAEDTAVYYCARDKGVGPTMVWYFDLWGRGTLVTVSS VL: EIVLTQSPATLSLSPGDRATLSCRASQSLSISLAWYQQKPGQAPRLLIYDASIRATGVPPRFSGSGSGTDFTLTISSLEPEDFAVYYCQQWSGWPPRLTFGGGTKVEIK
Binding AUC: 4.2
--
binder: 1242G6 (antibody, V domains shown, Recombinant human IgG1) VH: QVQLVQSGGGVVQPGTSVRLSCAASGFTFSDHGMHWVRQAPGKGLEWVAVISFEGRNKFFADSVKGRSTISRDNSKNTVSMQVDNVRPEDTAVYYCAREHFDGSGSDYIGTRFFDYWGRGALVTVSS VL: DIQLTQSPSFLSASVGDRVTITCRASQGISHYLTWYQQKPGKAPKLLIYRTSTLQSGVPSRFSGSGSGTVFTLTISSLQPEDLATYYCQHLDNFPTITFGQGTRLDLK
Binding AUC: 3.8
